target: recombinant human Mcl-1 (Homo sapiens); construct: C-terminally 6×His tagged Mcl-1 containing residues 171-327; experiment: Cell free Mcl-1:Bim affinity assay (Mcl-1 HTRF, TR-FRET); conditions: inhibition of Mcl-1/Bim interaction
pIC50: −log10 of the molar value.
quantity: pIC50

{"molecule": "C[C@H]1C/C=C/[C@H](O)[C@@H]2CC[C@H]2CN2C[C@@]3(CCCc4cc(Cl)ccc43)COc3ccc(cc32)C(=O)NS(=O)(=O)[C@@H]1C1CC1 (single isomer, unassigned) [Example 44]", "pIC50": 9.53}
{"molecule": "CC[C@@H]1CCCC[C@H](OC)[C@@H]2CC[C@H]2CN2C[C@@]3(CCCc4cc(Cl)ccc43)COc3ccc(cc32)C(=O)NS1(=O)=O [Example 21]", "pIC50": 8.56}
{"molecule": "COCCO[C@H]1/C=C/C[C@H](C)CS(=O)(=O)NC(=O)c2ccc3c(c2)N(C[C@@H]2CC[C@H]21)C[C@@]1(CCCc2cc(Cl)ccc21)CO3 (single isomer, unassigned) [Example 78]", "pIC50": 8.57}

1: O=C1NS(=O)(=O)CCCCC[C@H](O)[C@@H]2CC[C@H]2CN2C[C@@]3(CCCc4cc(Cl)ccc43)COc3ccc1cc32 [Example 10]
2: CC(C)[C@@H]1[C@H](C)C/C=C/[C@H](O)[C@@H]2CC[C@H]2CN2C[C@@]3(CCCc4cc(Cl)ccc43)COc3ccc(cc32)C(=O)NS1(=O)=O (single isomer, unassigned) [Example 51]
Lab note: check whether 1 or 2 shows the higher recorded pIC50. The response must carry the label of the picked entry.
1
(1: 8.93, 2: 7.61)

* * *

biological target: Mcl-1/Bak protein-protein interactions (Homo sapiens, UniProt Q07820); experiment: Cell-based split luciferase complementation assay; details: HEK 293 M cells, serum-free, 4 h
Sequence (Q07820 whole entry): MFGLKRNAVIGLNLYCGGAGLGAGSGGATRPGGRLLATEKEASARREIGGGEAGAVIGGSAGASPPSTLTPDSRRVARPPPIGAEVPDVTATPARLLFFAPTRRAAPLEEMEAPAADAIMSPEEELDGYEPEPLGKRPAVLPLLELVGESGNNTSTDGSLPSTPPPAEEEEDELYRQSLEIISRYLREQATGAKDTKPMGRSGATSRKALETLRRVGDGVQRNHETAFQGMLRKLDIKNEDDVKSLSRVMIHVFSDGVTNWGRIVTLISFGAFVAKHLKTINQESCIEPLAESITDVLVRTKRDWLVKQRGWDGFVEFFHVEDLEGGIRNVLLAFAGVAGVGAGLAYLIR
quantity: IC50 (nM)

Here's what some known entries look like.
{"compound": "O=C1NS(=O)(=O)CCC/C=C/[C@H](O)[C@@H]2CC[C@H]2CN2C[C@@]3(CCCc4cc(Cl)ccc43)COc3ccc1cc32 [Example 8]", "IC50 [nM]": 211}
{"compound": "COCCO[C@H]1/C=C/C[C@H](C)CS(=O)(=O)NC(=O)c2ccc3c(c2)N(C[C@@H]2CC[C@H]21)C[C@@]1(CCCc2cc(Cl)ccc21)CO3 (single isomer, unassigned) [Example 78]", "IC50 [nM]": 420}

A: CC[C@H]1CCCC[C@H](O)[C@@H]2CC[C@H]2CN2C[C@@]3(CCCc4cc(Cl)ccc43)COc3ccc(cc32)C(=O)NS1(=O)=O [Example 23]
B: C[C@@H]1CCC[C@H](O)[C@@H]2CC[C@H]2CN2C[C@@]3(CCCc4cc(Cl)ccc43)COc3ccc(cc32)C(=O)NS(=O)(=O)[C@@H]1C (single isomer, unassigned) [Example 35]
C: CC(C)[C@@H]1[C@H](C)C/C=C/[C@H](O)[C@@H]2CC[C@H]2CN2C[C@@]3(CCCc4cc(Cl)ccc43)COc3ccc(cc32)C(=O)NS1(=O)=O (single isomer, unassigned) [Example 50]
D: CC(C)O[C@H]1/C=C/C[C@H](C)[C@@H](C)S(=O)(=O)NC(=O)c2ccc3c(c2)N(C[C@@H]2CC[C@H]21)C[C@@]1(CCCc2cc(Cl)ccc21)CO3 [Example 43]
E: CCC[C@@H]1[C@@H](C)C/C=C/[C@H](O)[C@@H]2CC[C@H]2CN2C[C@@]3(CCCc4cc(Cl)ccc43)COc3ccc(cc32)C(=O)NS1(=O)=O [Example 70]
List the 5 entries from lowest IC50 to highest IC50 value. Your answer should be the labels, listed in the requested order.
E, B, D, C, A

Cited source: patent US11685747B2
